Biological target: Amine oxidase [flavin-containing] B (Homo sapiens, UniProt P27338)
Assay: Inhibition of recombinant human MAO-B expressed in baculovirus infected insect cells using kynuramine as substrate at 10 uM by fluorescence based method relative to control
Conditions: Insect cell
assay.metric: inhibition at 10 µM

[[record]]
record_smiles = "CC(C)(C)c1ccc(CNC(=O)c2nc3ccc(O)cc3s2)cc1"
target_desc = "Amine oxidase [flavin-containing] B (Homo sapiens, UniProt P27338)"
assay_metric = "inhibition at 10 µM"
value_reported = "44%"

[[record]]
record_smiles = "O=C(NCc1cccnc1)c1nc2ccc(O)cc2s1"
target_desc = "Amine oxidase [flavin-containing] B (Homo sapiens, UniProt P27338)"
assay_metric = "inhibition at 10 µM"
value_reported = "48%"

[[record]]
record_smiles = "O=C(c1nc2ccc(O)cc2s1)N1CCCCC1"
target_desc = "Amine oxidase [flavin-containing] B (Homo sapiens, UniProt P27338)"
assay_metric = "inhibition at 10 µM"
value_reported = "31%"

[[record]]
record_smiles = "COc1ccc(CNC(=O)c2nc3ccc(O)cc3s2)cc1"
target_desc = "Amine oxidase [flavin-containing] B (Homo sapiens, UniProt P27338)"
assay_metric = "inhibition at 10 µM"
value_reported = "53%"

[[record]]
record_smiles = "O=C(NCc1ccco1)c1nc2ccc(O)cc2s1"
target_desc = "Amine oxidase [flavin-containing] B (Homo sapiens, UniProt P27338)"
assay_metric = "inhibition at 10 µM"
value_reported = "41%"

[[record]]
record_smiles = "O=C(NC1CC1)c1nc2ccc(O)cc2s1"
target_desc = "Amine oxidase [flavin-containing] B (Homo sapiens, UniProt P27338)"
assay_metric = "inhibition at 10 µM"
value_reported = "52%"

[[record]]
record_smiles = "O=C(NCC(c1ccccc1)c1ccccc1)c1nc2ccc(O)cc2s1"
target_desc = "Amine oxidase [flavin-containing] B (Homo sapiens, UniProt P27338)"
assay_metric = "inhibition at 10 µM"
value_reported = "43%"

[[record]]
record_smiles = "O=C(NCc1ccc(-c2cccs2)cc1)c1nc2ccc(O)cc2s1"
target_desc = "Amine oxidase [flavin-containing] B (Homo sapiens, UniProt P27338)"
assay_metric = "inhibition at 10 µM"
value_reported = "30%"


----------
Target: UniProtKB P27338
Sequence (P27338 whole entry): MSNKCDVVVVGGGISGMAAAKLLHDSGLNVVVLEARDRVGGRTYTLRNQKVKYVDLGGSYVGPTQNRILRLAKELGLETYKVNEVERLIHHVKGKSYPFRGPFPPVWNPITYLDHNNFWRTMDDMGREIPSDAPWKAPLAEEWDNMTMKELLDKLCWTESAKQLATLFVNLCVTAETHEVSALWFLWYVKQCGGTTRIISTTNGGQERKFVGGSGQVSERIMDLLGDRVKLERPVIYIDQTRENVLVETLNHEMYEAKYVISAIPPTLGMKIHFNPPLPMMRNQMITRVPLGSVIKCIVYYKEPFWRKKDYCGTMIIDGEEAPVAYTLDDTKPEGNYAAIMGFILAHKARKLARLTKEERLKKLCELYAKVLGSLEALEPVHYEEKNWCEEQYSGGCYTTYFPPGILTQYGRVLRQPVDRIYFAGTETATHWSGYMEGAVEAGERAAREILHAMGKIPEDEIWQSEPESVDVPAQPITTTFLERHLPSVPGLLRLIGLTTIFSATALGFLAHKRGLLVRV
Assay: biochemical
Assay type: cell-based, Insect cell
Description: Inhibition of recombinant human MAO-B expressed in baculovirus infected insect cells using kynuramine as substrate by fluorescence based method
assay.metric: IC50

[[record]]
record_smiles = "O=C(NCc1ccccc1)c1nc2ccc(O)cc2s1"
assay_metric = "IC50"
value_reported = "552 nM"

